Attribution: paper PMC12498190

- Protocol details: Cell viability assay (MTT)
- Format: cell-based, human
- Measurement setup: human, HEK293 cells, 25 µM, regardless of irradiation, read-out: Remaining viability
Measurement name: viability at 24 h, 25 µM

input: For the molecule CCCCCc1ccc(SCCP(=O)(OCC)N2CCC[C@H](N)C2=O)cc1 (stereo partly shown) , give its measured viability at 24 h, 25 µM value.
output: ~65%

* * *

- Target under test: DPP9 (Homo sapiens)
- Protocol details: DPP9 enzyme inhibition assay, AMC release from GP-AMC
- Format: biochemical
- Set-up: purchased Proteros Biostructures GmbH, Germany
- Measurement setup: without irradiation, read-out: Apparent IC50
- Excerpt: We then continued to investigate the biochemical properties of the photocaged compound 5 versus the photoreleased product resembling inhibitor 1. To this end, we performed biochemical enzyme inhibition assays with DPP8 and DPP9 before and after irradiation of 5. Resulting DPP8/9 inhibition was quantified by following the DPP8‐ or DPP9‐mediated proteolysis of the fluorophore 7‐amino‐4‐methylcoumarin (AMC) from the model substrate Gly‐Pro‐AMC (Figure 1C,D and Table 1 ). […]
Measurement name: pIC50
Give bare numbers, as −log10 of the molar value.

input: For the compound CCCCCc1ccc(SCCP(=O)(OCC)N2CCC[C@H](NC(=O)OCC3=C4C(C)=CC(C)=[N+]4[B-](C)(C)n4c(C)cc(C)c43)C2=O)cc1 (stereo partly shown) , give its measured pIC50 value.
output: 4.61

* * *

- Target under test: DPP9 (Homo sapiens, UniProt Q86TI2)
- Sequence (Q86TI2 whole entry): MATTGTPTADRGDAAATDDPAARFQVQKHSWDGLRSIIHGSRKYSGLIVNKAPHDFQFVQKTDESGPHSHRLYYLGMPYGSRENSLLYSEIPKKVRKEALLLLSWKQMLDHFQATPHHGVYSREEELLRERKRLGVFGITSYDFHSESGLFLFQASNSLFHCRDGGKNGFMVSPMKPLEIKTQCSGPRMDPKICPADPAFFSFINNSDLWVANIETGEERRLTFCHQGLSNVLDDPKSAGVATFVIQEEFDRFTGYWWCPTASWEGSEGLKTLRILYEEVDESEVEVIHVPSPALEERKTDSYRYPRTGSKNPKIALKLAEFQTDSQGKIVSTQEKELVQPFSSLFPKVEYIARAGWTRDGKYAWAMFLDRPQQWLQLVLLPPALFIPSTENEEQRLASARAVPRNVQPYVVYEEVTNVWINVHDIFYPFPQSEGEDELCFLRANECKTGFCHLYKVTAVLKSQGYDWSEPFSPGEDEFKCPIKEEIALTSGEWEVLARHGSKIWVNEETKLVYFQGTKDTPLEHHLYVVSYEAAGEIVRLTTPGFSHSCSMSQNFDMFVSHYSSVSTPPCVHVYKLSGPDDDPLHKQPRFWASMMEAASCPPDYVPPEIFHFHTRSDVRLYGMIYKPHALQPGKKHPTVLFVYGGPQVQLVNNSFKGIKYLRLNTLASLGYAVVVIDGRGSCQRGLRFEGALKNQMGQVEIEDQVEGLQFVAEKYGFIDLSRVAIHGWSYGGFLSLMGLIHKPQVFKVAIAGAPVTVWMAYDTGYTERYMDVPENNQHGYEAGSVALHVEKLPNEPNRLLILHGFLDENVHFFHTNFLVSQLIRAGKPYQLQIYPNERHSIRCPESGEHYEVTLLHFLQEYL
- Protocol details: DPP9 enzyme inhibition assay, AMC release from GP-AMC
- Type: biochemical
- Set-up: purchased Proteros Biostructures GmbH, Germany
- Measurement setup: light (5 min green LED, 520-530 nm), 45 min pre-incubation, read-out: Apparent IC50
Measurement name: pIC50
One number for each entry, as −log10 of the molar value.

input: For the compound CCCCCc1ccc(SCCP(=O)(OCC)N2CCC[C@H](NC(=O)OCC3=C4C(C)=CC(C)=[N+]4[B-](C)(C)n4c(C)cc(C)c43)C2=O)cc1 (stereo partly shown) , give its measured pIC50 value.
output: 6.21

* * *

- Target under test: DPP9 (Homo sapiens, UniProt Q86TI2)
- Protocol details: DPP9 enzyme inhibition assay, AMC release from GP-AMC
- Type: biochemical
- Set-up: purchased Proteros Biostructures GmbH, Germany
- Measurement setup: dark (without green light irradiation), 45 min pre-incubation, read-out: Apparent IC50
Measurement name: IC50 (µM)
Give bare numbers, in µM.

input: Check DPP9 (Homo sapiens, UniProt Q86TI2) data and give IC50 for CCCCCc1ccc(SCCP(=O)(OCC)N2CCC[C@H](NC(=O)OCC3=C4C(C)=CC(C)=[N+]4[B-](C)(C)n4c(C)cc(C)c43)C2=O)cc1 (stereo partly shown) [Compound 5] .
output: 24.7
